experiment-notes: Binding affinity to monkey brain delta-opioid receptor
condition-context: read-out: Ki(app)
reported-metric: Ki (nM)

[[record]]
structure = "CO[C@@]12CC[C@@]3(C[C@@H]1[C@](C)(O)C(C)(C)C)[C@H]1Cc4ccc(O)c5c4[C@@]3(CCN1CC1CC1)[C@H]2O5"
reported_metric = "Ki"
recorded_number = 0.82


----------
target-under-test: UniProt P11362
Sequence (P11362 whole entry): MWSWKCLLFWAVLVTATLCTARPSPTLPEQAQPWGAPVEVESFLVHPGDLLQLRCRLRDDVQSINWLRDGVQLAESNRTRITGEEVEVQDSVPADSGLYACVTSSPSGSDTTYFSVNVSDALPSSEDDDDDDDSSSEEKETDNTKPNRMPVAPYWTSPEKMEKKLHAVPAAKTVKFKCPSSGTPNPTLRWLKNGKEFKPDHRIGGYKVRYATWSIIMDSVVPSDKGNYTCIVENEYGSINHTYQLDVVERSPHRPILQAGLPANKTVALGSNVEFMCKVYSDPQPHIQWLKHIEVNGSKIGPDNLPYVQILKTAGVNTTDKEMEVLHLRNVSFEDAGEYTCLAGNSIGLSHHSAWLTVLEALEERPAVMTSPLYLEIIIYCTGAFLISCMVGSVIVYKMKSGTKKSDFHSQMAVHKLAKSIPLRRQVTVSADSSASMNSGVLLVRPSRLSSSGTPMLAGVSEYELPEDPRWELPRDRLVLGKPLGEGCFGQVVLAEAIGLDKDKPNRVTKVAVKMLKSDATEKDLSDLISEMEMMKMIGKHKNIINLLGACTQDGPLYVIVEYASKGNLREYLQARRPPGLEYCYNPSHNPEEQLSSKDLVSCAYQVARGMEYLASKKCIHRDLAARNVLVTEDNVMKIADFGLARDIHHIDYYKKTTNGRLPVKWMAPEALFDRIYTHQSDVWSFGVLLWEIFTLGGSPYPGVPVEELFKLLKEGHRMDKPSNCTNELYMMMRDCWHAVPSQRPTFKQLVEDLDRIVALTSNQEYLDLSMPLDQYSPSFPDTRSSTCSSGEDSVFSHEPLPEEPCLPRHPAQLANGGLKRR
reported-metric: IC50 (nM)

[[record]]
molecule = "COc1cc2nccc(Oc3ccc(NC(=O)C4(C(=O)Nc5ccc(F)cc5)CC4)cc3)c2cc1OC [CABOZANTINIB]"
reported_metric = "IC50"
unit_of_measurement = "nM"
recorded_number = 11.3


----------
experiment-notes: Drug metabolism in human liver microsomes assessed as drug metabolised at 1 uM after 60 mins in presence of NADPH by LC-MS/MS analysis
Type: ADME
condition-context: read-out: Drug metabolism
# metabolised at 1 h, 1 µM annotations
reported-metric: metabolised at 1 h, 1 µM

[[record]]
molecule = "O=C(Cc1ccc(C(F)(F)F)cc1C(F)(F)F)NC1N=C(C2CC2)c2ccccc2N(CC(F)(F)F)C1=O (configuration not stated)"
result = "70%"

[[record]]
molecule = "CC(C)C1=NC(NC(=O)Cc2ccc(C(F)(F)F)cc2C(F)(F)F)C(=O)N(CC(F)(F)F)c2ccccc21 (configuration not stated)"
result = "15%"


----------
experiment-notes: Half life in human
Format: ADME
reported-metric: half-life

[[record]]
compound = "COCCc1ccc(OCC(O)CNC(C)C)cc1 (configuration not stated)"
result = "3 to 6 h"

[[record]]
compound = "CC(C)NCC(O)COc1ccc(CCOCC2CC2)cc1 (configuration not stated)"
result = "16 to 22 h"


----------
experiment-notes: Binding affinity to monkey brain mu-opioid receptor
condition-context: read-out: Ki(app)
pKi: −log10 of the molar value.
reported-metric: pKi

[[record]]
structure = "CO[C@@]12CC[C@@]3(C[C@@H]1[C@](C)(O)C(C)(C)C)[C@H]1Cc4ccc(O)c5c4[C@@]3(CCN1CC1CC1)[C@H]2O5"
recorded_number = 10.10

